experiment: Partition coefficient (logP); format: physicochemical; conditions: octanol/water
measure-name: logP

These solved cases illustrate the format of a correct answer.
substance_smiles=CC1=C2CCc3cc(OCc4ccc(C(F)(F)F)cc4)ccc3N2CCC1=O measure_name=logP measured_result=5.52
substance_smiles=CC1=C2CCc3cc(-c4ccccc4)ccc3N2CCC1=O measure_name=logP measured_result=4.74
substance_smiles=CC1=C2CCc3cc(-c4cccnc4)ccc3N2CCC1=O measure_name=logP measured_result=3.35
substance_smiles=CC1=C2CCc3cc(C(=O)OC(C)C)ccc3N2CCC1=O measure_name=logP measured_result=3.97
substance_smiles=CC1=C2CCc3cc(-c4ccco4)ccc3N2CCC1=O measure_name=logP measured_result=4.12
substance_smiles=CC1=C2CCc3cc(/C=C/c4ccccc4)ccc3N2CCC1=O measure_name=logP measured_result=5.54

a = CCOC(=O)c1ccc2c(c1)CCC1=C(C)C(=O)CCN12
b = CC1=C2CCc3cc(C#Cc4ccccc4)ccc3N2CCC1=O
c = O=C1C=C2CCc3ccccc3N2CC1
query: Task for the reader: rank each entry by its logP, from the minimum upward. Note for the reader: the ranking is given by listing the labels in the order requested.
result: c, a, b

a = CC1=C2CCc3cc(OCc4ccccc4Cl)ccc3N2CCC1=O
b = CC1=C2CCc3ccccc3N2CCC1=O
query: Compare reported logP values for a and b . Which is lower? The response must carry the label of the picked entry.
result: b
(b: 2.85, a: 5.35)

P = COC(=O)c1cccc(OC(=O)c2ccc3c(c2)CCC2=C(C)C(=O)CCN23)c1
Q = Cc1ccc2c(c1)CCC1=CC(=O)CCN12
query: Compare reported logP values for P and Q . Which is lower? The response must carry the label of the picked entry.
result: Q
(Q: 2.83, P: 4.86)

* * *

experiment: Partition coefficient (logP); format: physicochemical; settings: octanol/water
measure-name: logP

These solved cases illustrate the format of a correct answer.
substance_smiles=CC1=C2CCc3cc(Cl)ccc3N2CCC1=O measured_result=3.73
substance_smiles=CC1=C2CCc3cc(C(=O)OC(C)(C)C)ccc3N2CCC1=O measured_result=4.37
substance_smiles=CC1=C2CCc3cc(OCc4cccc(Cl)c4)ccc3N2CCC1=O measured_result=5.35
substance_smiles=CC1=C2CCc3cc(C(=O)Oc4ccc(C(C)(C)C)cc4)ccc3N2CCC1=O measured_result=6.47

a = CC1=C2CCc3cc(/C=C\c4ccccc4)ccc3N2CCC1=O
b = COC(=O)c1ccc2c(c1)CCC1=C(C)C(=O)CCN12
query: Compare reported logP values for a and b . Which is lower? The response must carry the label of the picked entry.
result: b

* * *

molecular target: 3-oxo-5-alpha-steroid 4-dehydrogenase 1 (Homo sapiens, UniProt P18405); test: Log of inhibitory concentration against human recombinant steroid 5-alpha-reductase type I in stably transfected chinese hamster ovary (CHO) 1827 cells using [3H]testosterone.
Sequence (P18405 whole entry): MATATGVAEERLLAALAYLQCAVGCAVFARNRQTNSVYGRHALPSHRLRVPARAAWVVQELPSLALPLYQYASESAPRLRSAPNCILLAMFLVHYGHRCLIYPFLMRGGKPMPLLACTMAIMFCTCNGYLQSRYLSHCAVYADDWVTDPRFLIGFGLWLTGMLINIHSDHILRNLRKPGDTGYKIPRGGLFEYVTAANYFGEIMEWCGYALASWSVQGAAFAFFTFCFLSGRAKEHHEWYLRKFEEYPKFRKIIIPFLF
measure-name: IC50 (nM)

These solved cases illustrate the format of a correct answer.
substance_smiles=CCc1ccc2c(c1)CCC1=C(C)C(=O)CCN12 target_entity="3-oxo-5-alpha-steroid 4-dehydrogenase 1 (Homo sapiens, UniProt P18405)" measure_name=IC50 measured_result=14.1
substance_smiles=CCOC(=O)c1ccc2c(c1)CCC1=C(C)C(=O)CCN12 target_entity="3-oxo-5-alpha-steroid 4-dehydrogenase 1 (Homo sapiens, UniProt P18405)" measure_name=IC50 measured_result=219
substance_smiles=CC1=C2CCc3cc(C(=O)Oc4ccccc4)ccc3N2CCC1=O target_entity="3-oxo-5-alpha-steroid 4-dehydrogenase 1 (Homo sapiens, UniProt P18405)" measure_name=IC50 measured_result=933
substance_smiles=CC1=C2CCc3cc(-c4cccnc4)ccc3N2CCC1=O target_entity="3-oxo-5-alpha-steroid 4-dehydrogenase 1 (Homo sapiens, UniProt P18405)" measure_name=IC50 measured_result=170
substance_smiles=CC1=C2CCc3cc(OCc4cc(C(F)(F)F)ccc4C(F)(F)F)ccc3N2CCC1=O target_entity="3-oxo-5-alpha-steroid 4-dehydrogenase 1 (Homo sapiens, UniProt P18405)" measure_name=IC50 measured_result=389
substance_smiles=CC1=C2CCc3cc(-c4ccco4)ccc3N2CCC1=O target_entity="3-oxo-5-alpha-steroid 4-dehydrogenase 1 (Homo sapiens, UniProt P18405)" measure_name=IC50 measured_result=132
substance_smiles=CC1=C2CCc3cc(C(=O)Oc4ccc(C)cc4)ccc3N2CCC1=O target_entity="3-oxo-5-alpha-steroid 4-dehydrogenase 1 (Homo sapiens, UniProt P18405)" measure_name=IC50 measured_result=1050
substance_smiles=COc1ccc2c(c1)CCC1=C(C)C(=O)CCN12 target_entity="3-oxo-5-alpha-steroid 4-dehydrogenase 1 (Homo sapiens, UniProt P18405)" measure_name=IC50 measured_result=182

I = C=Cc1ccc2c(c1)CCC1=C(C)C(=O)CCN12
II = CC1=C2CCc3cc(OCc4ccc(C(F)(F)F)cc4)ccc3N2CCC1=O
III = CC1=C2CCc3cc(C(=O)OC(C)C)ccc3N2CCC1=O
query: // sort entries: IC50, high to low Note for the reader: the ranking is given by listing the labels in the order requested.
result: III, II, I

P = COC(=O)c1ccc(OC(=O)c2ccc3c(c2)CCC2=C(C)C(=O)CCN23)cc1
Q = CC1=C2CCc3cc(-c4cccs4)ccc3N2CCC1=O
query: Compare reported IC50 values for P and Q . Which is lower? The response must carry the label of the picked entry.
result: Q

a = COC(=O)c1cccc(OC(=O)c2ccc3c(c2)CCC2=C(C)C(=O)CCN23)c1
b = CC1=C2CCc3cc(Br)ccc3N2CCC1=O
c = CC1=C2CCc3cc(OCc4ccc(Cl)cc4)ccc3N2CCC1=O
query: Task for the reader: rank each entry by its IC50, from the minimum upward. Note for the reader: the ranking is given by listing the labels in the order requested.
result: b, c, a

1 = CC1=C2CCc3cc(Cl)ccc3N2CCC1=O
2 = CC1=C2CCc3cc(C#Cc4ccccc4)ccc3N2CCC1=O
query: Response body: label of entry with the larger IC50; valid values 1 , 2 . The response must carry the label of the picked entry.
result: 2
(2: 8.71 nM, 1: 5.62 nM)

* * *

assay: Partition coefficient (logP); format: physicochemical; details: octanol/water
measure-name: logP

substance_smiles=CC1=C2CCc3cc(Br)ccc3N2CCC1=O measured_result=3.88

1 = O=C1C=C2CCc3cc(Cl)ccc3N2CC1
2 = CC1=C2CCc3cc(OCc4cc(C(F)(F)F)ccc4C(F)(F)F)ccc3N2CCC1=O
query: Compare reported logP values for 1 and 2 . Which is lower? The response must carry the label of the picked entry.
result: 1
(1: 3.22, 2: 6.41)

* * *

target: 3-oxo-5-alpha-steroid 4-dehydrogenase 1 (Homo sapiens); test: Inhibitory concentration against human recombinant steroid 5-alpha-reductase type I in stably transfected chinese hamster ovary (CHO) 1827 cells using [3H]testosterone.
measure-name: IC50 (nM)

a = CC1=C2CCc3cc(-c4ccco4)ccc3N2CCC1=O
b = CC1=C2CCc3cc(OCc4ccc(Cl)cc4)ccc3N2CCC1=O
c = CCc1ccc2c(c1)CCC1=C(C)C(=O)CCN12
d = CC1=C2CCc3cc(/C=C/c4ccccc4)ccc3N2CCC1=O
query: Order them by IC50, ascending: the molecules above. Note for the reader: the ranking is given by listing the labels in the order requested.
result: c, b, a, d

* * *

assay: Partition coefficient (logP); assay type: physicochemical; settings: octanol/water
measure-name: logP

A = CCc1ccc2c(c1)CCC1=C(C)C(=O)CCN12
B = CC1=C2CCc3cc(OCc4ccc(C(F)(F)F)cc4C(F)(F)F)ccc3N2CCC1=O
query: Compare reported logP values for A and B . Which is lower? The response must carry the label of the picked entry.
result: A

* * *

target: 3-oxo-5-alpha-steroid 4-dehydrogenase 1 (Homo sapiens, UniProt P18405); assay: Log of inhibitory concentration against human recombinant steroid 5-alpha-reductase type I in stably transfected chinese hamster ovary (CHO) 1827 cells using [3H]testosterone.
measure-name: IC50 (nM)

substance_smiles=CC1=C2CCc3cc(C(=O)Oc4ccc(C(C)(C)C)cc4)ccc3N2CCC1=O target_entity="3-oxo-5-alpha-steroid 4-dehydrogenase 1 (Homo sapiens, UniProt P18405)" measured_result=562
substance_smiles=CC1=C2CCc3cc(OCc4ccc(C(F)(F)F)cc4C(F)(F)F)ccc3N2CCC1=O target_entity="3-oxo-5-alpha-steroid 4-dehydrogenase 1 (Homo sapiens, UniProt P18405)" measured_result=148
substance_smiles=CC1=C2CCc3cc(C(=O)OCc4ccccc4)ccc3N2CCC1=O target_entity="3-oxo-5-alpha-steroid 4-dehydrogenase 1 (Homo sapiens, UniProt P18405)" measured_result=97.7

A = CC1=C2CCc3cc(-c4ccccc4)ccc3N2CCC1=O
B = CC1=C2CCc3cc(C(=O)OC(C)(C)C)ccc3N2CCC1=O
query: Compare reported IC50 values for A and B . Which is lower? The response must carry the label of the picked entry.
result: A

A = CC1=C2CCc3cc(OCc4ccccc4)ccc3N2CCC1=O
B = CC1=C2CCc3cc(OCc4ccccc4Cl)ccc3N2CCC1=O
C = CC1=C2CCc3cc(/C=C\c4ccccc4)ccc3N2CCC1=O
D = CC1=C2CCc3cc(/C=C/c4ccccc4)ccc3N2CCC1=O
query: // sort entries: IC50, high to low Note for the reader: the ranking is given by listing the labels in the order requested.
result: D, B, A, C
(D: 380 nM, B: 195 nM, A: 112 nM, C: 14.1 nM)
